Could you please report measured %Inh for the items listed next?
Test system: RIOK1
Settings: concentration: 1 μM, replicates: in singlicate; n = 1;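 further: KINOMEscan kinase panel screen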
I'd appreciate it if you wrote the number followed by its unit.

Ask: For RIOK1, provide %Inh of Cc1cccc2c(-c3ccncn3)c(-c3ccc(F)cc3)nn12 please.
Result: 34%

Ask: // same read-out, input: Cc1ccccc1Cn1ccn2c(=O)cc(N3CCOCC3)nc12
Result: 0%

Ask: // same read-out, input: Cc1ccc(NC(=O)c2ccc(Cl)cc2)cc1-c1ccc(C(=O)Nc2ccncc2)cc1
Result: 32%

Ask: // same read-out, input: COc1ccc(Nc2nccc(-c3ccc(NC(=O)c4cc5cc(F)ccc5[nH]4)cc3)n2)cc1
Result: 40%

Ask: // same read-out, input: CN1c2ccc(-c3ccc(C(N)=O)cc3)cc2-c2[nH]ncc2S1(=O)=O
Result: 33%

Ask: // same read-out, input: COc1ccc(CSc2nnc(-c3ccc4c(c3)CCO4)o2)cc1
Result: 0%

---

Test system: CASK
Conditions: concentration: 1 μM, replicates: in singlicate; n = 1
measurement label: %Inh (%)
Give the number; % is assumed, so skip it.

Ask: I would be grateful if you could share the reported %Inh for CCc1ccc(-c2ccc3c(c2)-c2n[nH]cc2S(=O)(=O)N3C)cc1 .
Result: 29

Ask: // same read-out, input: CN1c2ccc(-c3ccc(C(N)=O)cc3)cc2-c2[nH]ncc2S1(=O)=O
Result: 1

Ask: // same read-out, input: COC(=O)C(Cc1ccccc1)NC(=O)NC1CCN(c2ccnc(Nc3ccc(F)cc3)n2)C1 (centres unmarked) [GSK1379714]
Result: 4

Ask: // same read-out, input: CCCCc1nn2ncccc2c1-c1ccnc(NC2CC2)n1 [GW684374]
Result: 0

Ask: // same read-out, input: CS(=O)(=O)CCNCc1nc(-c2ccc3ncnc(Nc4ccc5c(cnn5Cc5ccccc5)c4)c3c2)cs1.Cl.Cl [GW569716]
Result: 0

Ask: // same read-out, input: CNC(=O)c1ccc(C)c(-n2c(C)cc(OCc3ccc(F)cc3F)c(Br)c2=O)c1
Result: 0

Ask: // same read-out, input: CCn1c(-c2ccccc2)nc2cnccc21 [SB-733416]
Result: 18

Ask: // same read-out, input: O=C1NC(=O)C(c2ccc(Cl)cc2)=C1Nc1ccc(O)cc1 [SB-340867]
Result: 4

Ask: // same read-out, input: Cc1cccc2c(-c3ccncn3)c(-c3ccc(F)cc3)nn12 [GW515532]
Result: 0

Ask: // same read-out, input: Cc1ccccc1-c1cc(-c2c[nH]nc2-c2ccccn2)ccn1 [GW680061]
Result: 25

Ask: // same read-out, input: Cc1ccc(NC(=O)Nc2ccccc2F)cc1-c1ccc(C(=O)Nc2ccncc2)cc1 [GSK1398477]
Result: 17

Ask: // same read-out, input: CC(=O)c1c(C)c2cnc(Nc3ccn(C)n3)nc2n(C2CCCC2)c1=O
Result: 12

Ask: // same read-out, input: Cn1cnc2c(N)ncnc21 [SKF-97623]
Result: 7

Ask: // same read-out, input: CC(=O)c1cccc(NC(=O)NC2CCN(c3ccnc(Nc4ccc(F)cc4)n3)C2)c1 (centres unmarked) [GSK1379710]
Result: 6

Ask: // same read-out, input: COC(=O)c1cccc(NC(=O)NC2CCN(c3ccnc(Nc4ccc(OC)cc4)n3)C2)c1 (centres unmarked) [GSK1379746]
Result: 2

Ask: // same read-out, input: Cc1ccc(NC(=O)Nc2ccc(Cl)c(C(F)(F)F)c2)cc1-c1ccc(C(=O)Nc2ccncc2)cc1 [GSK1398470]
Result: 0

Ask: // same read-out, input: COc1ccc(Nc2nccc(-c3ccc(NC(=O)c4cc5cc(F)ccc5[nH]4)cc3)n2)cc1 [GSK1229496]
Result: 0
